// data source = ChEMBL document CHEMBL4689842

Tested on: HEK-293T
Assay: Incucyte cell viability with HEK293T; further: filed as whole numbers so only -1 and 0 and 1 occur
Assay type: toxicity, cell-based
Conditions: human, 24 h, 10 µM, compound concentration 10 uM, replicate number 1, timepoint 24 hours

{"Line notation": "O=C1NC(=O)C(c2cnc3ccccn23)=C1c1cn2c3c(cc(F)cc13)CN(C(=O)N1CCCCC1)CC2", "Tested target": "HEK-293T", "Growth Rate": 1}
{"Line notation": "CC1(C)C(=O)C(C)(C)c2cc(C(=O)Nc3ccc(C(=O)O)cc3)ccc21", "Tested target": "HEK-293T", "Growth Rate": 1}
{"Line notation": "Cc1nc(NC(=O)N2CCC[C@H]2C(N)=O)sc1-c1ccnc(C(C)(C)C(F)(F)F)c1", "Tested target": "HEK-293T", "Growth Rate": 1}
{"Line notation": "CC(C)NC(=O)c1ccc(C#Cc2ccncc2)cn1", "Tested target": "HEK-293T", "Growth Rate": 0}
{"Line notation": "COc1ccc(-c2ccc3c(N4CCOCC4)nc(N4C[C@@H](C)O[C@@H](C)C4)nc3n2)cc1CO", "Tested target": "HEK-293T", "Growth Rate": 0}
